The reported measurements were obtained from paper PMC5540273.

test system: CIT; details: concentration: 1 μM, replicates: in singlicate; n = 1;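 also: KINOMEscan kinase panel screen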
Each entry below carries its recorded %Inh.
VALUE_TYPE: %Inh (%)

COMPOUND: Cc1ccc(S(=O)(=O)Nc2ccc(Nc3nccc(Nc4cccc5[nH]ncc45)n3)cc2)cc1 [GSK581271]
VALUE_TYPE: %Inh
VALUE_REPORTED: 28
--
COMPOUND: Cl.Cl.NCC(NC(=O)c1cc(-c2ccccc2)c(-c2ccnc3[nH]ccc23)s1)c1ccccc1 (centres unmarked) [GSK1321561]
VALUE_TYPE: %Inh
VALUE_REPORTED: 99.9
--
COMPOUND: Cn1cc(-c2ccc3c(c2)CCN3C(=O)Cc2cccc(F)c2)c2c(N)ncnc21 [GSK2603358]
VALUE_TYPE: %Inh
VALUE_REPORTED: 20
--
COMPOUND: CCS(=O)(=O)c1ccc(OC)c(Nc2nccc(-c3c(-c4cccc(NC(=O)c5c(F)cccc5F)c4)nn4ncccc34)n2)c1 [GSK326180]
VALUE_TYPE: %Inh
VALUE_REPORTED: 8
--
COMPOUND: CCc1ccc(-c2ccc3c(c2)-c2c(cnn2C)S(=O)(=O)N3C)cc1
VALUE_TYPE: %Inh
VALUE_REPORTED: 8
--
COMPOUND: Cc1ccc(C(=O)Nc2ccc(Nc3ccnc4cc(-c5nccs5)ccc34)cc2O)cc1.Cl [GW494702]
VALUE_TYPE: %Inh
VALUE_REPORTED: 36
--
COMPOUND: O=C(Nc1cccc(-c2nn3ccccc3c2-c2ccnc(Nc3cccc(C(F)(F)F)c3)n2)c1)c1c(F)cccc1F [GSK292658]
VALUE_TYPE: %Inh
VALUE_REPORTED: 44
--
COMPOUND: Cl.c1ccc(-c2ccc3c(Nc4ccc5[nH]ncc5c4)ccnc3c2)nc1 [GW440137]
VALUE_TYPE: %Inh
VALUE_REPORTED: 11
--
COMPOUND: COc1cc2c(cc1OCCN1CCNCC1)ncc1c3ccc(C#N)cc3[nH]c21
VALUE_TYPE: %Inh
VALUE_REPORTED: 98.8
--
COMPOUND: Nc1ncc(-c2ccc3nccc(-c4ccncc4)c3c2)cc1S(=O)(=O)N1CCOCC1 [GSK1627798]
VALUE_TYPE: %Inh
VALUE_REPORTED: 7
--
COMPOUND: Nc1ncc(-c2cccnc2)c2scc(-c3ccc4c(c3)CCN4C(=O)Cc3ccccc3)c12 [GSK683281]
VALUE_TYPE: %Inh
VALUE_REPORTED: 49
--
COMPOUND: COc1ccc(CNC(=O)NC2CCN(c3ccnc(Nc4ccc(F)cc4)n3)CC2)cc1 [GSK1379788]
VALUE_TYPE: %Inh
VALUE_REPORTED: 28
--
COMPOUND: COc1ccc(-c2coc3ccc(-c4nnc(SCc5ccc(OC)c(C(F)(F)F)c5)o4)cc23)cc1
VALUE_TYPE: %Inh
VALUE_REPORTED: 0
--
COMPOUND: COc1cccc(C2=C(Nc3ccc(Cl)c(C(=O)O)c3)C(=O)NC2=O)c1 [SB-390769]
VALUE_TYPE: %Inh
VALUE_REPORTED: 40
--
COMPOUND: c1ccc(Oc2ccc(Nc3ccnc4cc(-c5ccc(CNCCN6CCOCC6)o5)ccc34)cc2)nc1 [GW567145]
VALUE_TYPE: %Inh
VALUE_REPORTED: 7
--
COMPOUND: c1ccc(-c2n[nH]cc2Nc2ccnc3ccccc23)nc1 [GW694077]
VALUE_TYPE: %Inh
VALUE_REPORTED: 61
--
COMPOUND: COc1ccc(Nc2nccc(N3CCC(NC(=O)Nc4cccc(OC)c4)C3)n2)cc1 (centres unmarked) [GSK1379742]
VALUE_TYPE: %Inh
VALUE_REPORTED: 14

----------
test system: ERBB3; conditions: concentration: 1 μM, replicates: in singlicate; n = 1

COMPOUND: CNC(=O)c1ccccc1Nc1nc(Nc2ccc(N3CCOCC3)cc2)ncc1Cl.Cl
TEST_TARGET: ERBB3
%Inh / %: 0
--
COMPOUND: Cn1cc(-c2ccc3c(c2)CCN3C(=O)Cc2cccc(Cl)c2)c2c(N)ncnc21
TEST_TARGET: ERBB3
%Inh / %: 0
--
COMPOUND: COc1ccc(Nc2nccc(N3CCC(NC(=O)Nc4cccc(OC)c4)C3)n2)cc1 (stereo not shown)
TEST_TARGET: ERBB3
%Inh / %: 4
--
COMPOUND: CCn1c(-c2nonc2N)nc2c(C#CC(C)(C)O)ncc(OCCCCN)c21.O=C(O)C(F)(F)F.O=C(O)C(F)(F)F
TEST_TARGET: ERBB3
%Inh / %: 0
--
COMPOUND: O=C(O)C(F)(F)F.O=C(O)C(F)(F)F.O=c1[nH]ccc2nc(N[C@@H]3CCCNC3)nc(Nc3ccc(S(=O)(=O)N4CCOCC4)cc3)c12
TEST_TARGET: ERBB3
%Inh / %: 45
--
COMPOUND: Cc1ccc(C(=O)Nc2ccc(Nc3ccnc4cc(-c5nccs5)ccc34)cc2O)cc1.Cl
TEST_TARGET: ERBB3
%Inh / %: 21
--
COMPOUND: Cc1occc1-c1ncc(OC[C@@H](N)Cc2c[nH]c3ccccc23)cc1-c1ccc2[nH]nc(C)c2c1.O=C(O)C(F)(F)F
TEST_TARGET: ERBB3
%Inh / %: 0
--
COMPOUND: O=C(Nc1cccc(-c2nn3ncccc3c2-c2ccnc(Nc3ccccc3)n2)c1)c1c(F)cccc1F
TEST_TARGET: ERBB3
%Inh / %: 80
--
COMPOUND: Cn1cc(-c2[nH]c3cc(NC(=O)[C@H](N)C4CCCCC4)cc4c3c2C=NNC4=O)cn1
TEST_TARGET: ERBB3
%Inh / %: 77
--
COMPOUND: CCCCc1nn2ncccc2c1-c1ccnc(Nc2ccc(N3CCN(C)CC3)cc2)n1
TEST_TARGET: ERBB3
%Inh / %: 72
--
COMPOUND: Cc1ccc(F)c(C(=O)Nc2cccc(-c3nn4ccccc4c3-c3ccnc(Nc4cccc(F)c4)n3)c2)c1F
TEST_TARGET: ERBB3
%Inh / %: 25
--
COMPOUND: COC(=O)Nc1nc2ccc(Oc3ccc(NC(=O)Nc4cc(C(F)(F)F)ccc4F)cc3)cc2n1C.Cl
TEST_TARGET: ERBB3
%Inh / %: 29
--
COMPOUND: CCn1c(-c2nonc2N)nc2c(C#CC(C)(C)O)nc(OC[C@H](N)c3ccccc3)cc21
TEST_TARGET: ERBB3
%Inh / %: 0
--
COMPOUND: c1ccc(Oc2ccc(Nc3ccnc4cc(-c5ccc(CNCCN6CCOCC6)o5)ccc34)cc2)nc1
TEST_TARGET: ERBB3
%Inh / %: 98.4
--
COMPOUND: C[C@@H](Oc1cc(-n2cnc3cc(-c4ccnc(NCCS(C)(=O)=O)c4)ccc32)sc1C(N)=O)c1ccccc1Cl
TEST_TARGET: ERBB3
%Inh / %: 0
--
COMPOUND: Cc1ccc(C(=O)N2CC[C@@H](O)C2)cc1-n1c(C)cc(OCc2ccc(F)cc2F)c(Br)c1=O
TEST_TARGET: ERBB3
%Inh / %: 0

----------
system: PIK3C2B; settings: concentration: 1 μM, replicates: in singlicate; n = 1
Measured %Inh values are reported for all entries that follow.

MOLECULE: COc1cccc(-c2ccc3c(NC(=O)C4CC4)n[nH]c3n2)c1
TEST_TARGET: PIK3C2B
%Inh / %: 0
//
MOLECULE: Cc1cccc(Nc2nc(N[C@H]3CCNC3)ncc2C(N)=O)c1.Cl
TEST_TARGET: PIK3C2B
%Inh / %: 0
//
MOLECULE: O=C(NC1CCN(c2ccnc(Nc3ccc(F)cc3)n2)C1)c1cc2ccccc2s1 (stereo not shown)
TEST_TARGET: PIK3C2B
%Inh / %: 0
//
MOLECULE: O=C(Nc1cccc(-c2nn3ccccc3c2-c2ccnc(Nc3cccc(C(F)(F)F)c3)n2)c1)c1c(F)cccc1F
TEST_TARGET: PIK3C2B
%Inh / %: 0
//
MOLECULE: Nc1ncc(-c2ccc3nccc(-c4ccncc4)c3c2)cc1S(=O)(=O)N1CCOCC1
TEST_TARGET: PIK3C2B
%Inh / %: 99.5
//
MOLECULE: COc1cc(Nc2nccc(N3CCC(NC(=O)c4cc5ccccc5s4)C3)n2)cc(OC)c1OC (stereo not shown)
TEST_TARGET: PIK3C2B
%Inh / %: 0
//
MOLECULE: Cl.Cl.NCC(NCc1ccc(-c2ccnc3[nH]ccc23)s1)c1ccccc1 (stereo not shown)
TEST_TARGET: PIK3C2B
%Inh / %: 0
//
MOLECULE: O=C(Nc1n[nH]c2nc(-c3ccc(O)cc3)ccc12)C1CC1
TEST_TARGET: PIK3C2B
%Inh / %: 0
//
MOLECULE: CN(C)Cc1ccc(-c2ccc3c(Nc4ccc(Oc5ccccn5)cc4)ccnc3c2)o1
TEST_TARGET: PIK3C2B
%Inh / %: 0
//
MOLECULE: Cn1cc(-c2ccc3c(c2)CCN3C(=O)Cc2cccc(F)c2)c2c(N)ncnc21
TEST_TARGET: PIK3C2B
%Inh / %: 80
//
MOLECULE: COCCOCCOc1cc2ncc3c4ccc(C#N)cc4[nH]c3c2cc1OC
TEST_TARGET: PIK3C2B
%Inh / %: 0
//
MOLECULE: Nc1n[nH]c2cnc(-c3ccccc3)cc12
TEST_TARGET: PIK3C2B
%Inh / %: 0
//
MOLECULE: O=C(Nc1ccccc1F)NC1CCN(c2ccnc(Nc3ccc(F)cc3)n2)CC1
TEST_TARGET: PIK3C2B
%Inh / %: 0
//
MOLECULE: COc1cccc(NC(=O)NC2CCN(c3ccnc(Nc4cc(OC)c(OC)c(OC)c4)n3)C2)c1 (stereo not shown)
TEST_TARGET: PIK3C2B
%Inh / %: 0
//
MOLECULE: Cc1ccc(S(=O)(=O)Nc2ccc(Nc3nccc(Nc4cccc5[nH]ncc45)n3)cc2)cc1
TEST_TARGET: PIK3C2B
%Inh / %: 0
//
MOLECULE: Nc1ncnc2c1nc(-c1ccccc1)n2-c1ccccc1
TEST_TARGET: PIK3C2B
%Inh / %: 4
